- measurement.parameters: in water, 298.15 K
experimental.readout: solubility (mole fraction)
One number for each entry.

solubility (mole fraction) lookup needed for `CCOC(=O)C1(c2ccccc2)CCN(CCC(C#N)(c2ccccc2)c2ccccc2)CC1` , thanks.
1.14e-05

---

- measurement.parameters: in ethanol, 288.15 K
experimental.readout: solubility (mole fraction)
Numbers only.

solubility (mole fraction) lookup needed for `CCOC(=O)C1(c2ccccc2)CCN(CCC(C#N)(c2ccccc2)c2ccccc2)CC1` , thanks.
0.00127

---

- measurement.parameters: in methanol, 313.15 K
experimental.readout: solubility (mole fraction)
Give bare numbers.

solubility (mole fraction) lookup needed for `CCOC(=O)C1(c2ccccc2)CCN(CCC(C#N)(c2ccccc2)c2ccccc2)CC1` , thanks.
0.0147
